# Conversion to 1,3PDS (%) 24 h annotations
Test: Water stability (conversion of prodrug to 1,3PDS)
Assay type: physicochemical
Settings: deionized water, room temperature, 24 h
Procedure: The objective of this test was to determine the stability of the prodrugs in simulated gastric fluid (SGF) and water at 37° C. up to 2 hours and in water at room temperature up to 24 hours. Simulated gastric fluid and water samples were incubated in a shaking water bath at 37° C. for up to 2 hours. […] At each selected time point (refer to table), sample aliquots were withdrawn and analyzed to determine the concentration of 1,3-propanedisulfonic acid (1,3PDS). […]
measured_endpoint: Conversion to 1,3PDS (%) 24 h

O=S1(=O)CCCS(=O)(=O)O1 : 61.2
COC(=O)c1ccccc1OS(=O)(=O)CCCS(=O)(=O)O : 0.0
CC(C)(C)COS(=O)(=O)CCCS(=O)(=O)[O-].[Na+] : 1.4
CC(C)(CNC(=O)[C@H](Cc1ccccc1)NC(=O)OC(C)(C)C)COS(=O)(=O)CCCS(=O)(=O)[O-].[Na+] : 21.3
CC(C)(COS(=O)(=O)CCCS(=O)(=O)OCC(C)(C)C(=O)OCc1ccccc1)C(=O)OCc1ccccc1 : 0.0
CC(C)(CCOC(=O)c1ccccc1)COS(=O)(=O)CCCS(=O)(=O)OCC(C)(C)CCOC(=O)c1ccccc1 : 0.0
CC(OC(=O)NCCC(C)(C)COS(=O)(=O)CCCS(=O)(=O)O)OC(=O)C(C)C (stereo not shown) : 0.0

----------
Assay: Water stability (conversion of prodrug to 1,3PDS)
Format: physicochemical
Conditions: deionized water, 37° C., 2 h
measured_endpoint: Conversion to 1,3PDS (%) 2 h

CC(C)(COS(=O)(=O)CCCS(=O)(=O)OCC(C)(C)C(=O)OCc1ccccc1)C(=O)OCc1ccccc1 [Compound B30] : 0.0
CC(C)(CCOC(=O)c1ccccc1)COS(=O)(=O)CCCS(=O)(=O)OCC(C)(C)CCOC(=O)c1ccccc1 [Compound B23] : 0.0
CC(C)(C)COS(=O)(=O)CCCS(=O)(=O)[O-].[Na+] [A6(Na)] : 1.6
CC(C)[C@H](N)C(=O)NCCC(C)(C)COS(=O)(=O)CCCS(=O)(=O)OCC(C)(C)CCNC(=O)[C@@H](N)C(C)C [Compound B14] : 0.0
O=S1(=O)CCCS(=O)(=O)O1 [Compound C1] : 63.1
CC(OC(=O)NCCC(C)(C)COS(=O)(=O)CCCS(=O)(=O)O)OC(=O)C(C)C (stereo not shown) [Compound A13] : 0.0
CC(C)[C@H](N)C(=O)NCCC(C)(C)COS(=O)(=O)CCCS(=O)(=O)O [Compound A14] : 1.4

----------
Tested on: Salmonella typhimurium strains (TA1535, TA1537, TA98, TA100) and Escherichia coli strain WP2 uvrA
Assay: Bacterial mutation tests (Ames test)
Assay type: cell-based
Details: 1.58 to 5000 μg/plate, pre-incubation version, without S9 mix
measured_endpoint: Bacterial mutation test result in absence of S9

CCOC(=O)CCC(C)(C)COS(=O)(=O)CCCS(=O)(=O)OCC(C)(C)CCC(=O)OCC : Negative
CCOC(=O)C(OS(=O)(=O)CCCS(=O)(=O)OC(C(=O)OCC)C(C)C)C(C)C (stereo not shown) : Negative
CCOC(=O)C(C)(C)COS(=O)(=O)CCCS(=O)(=O)OCC(C)(C)C(=O)OCC : Negative
CCOC(=O)C(C)(C)C(C)OS(=O)(=O)CCCS(=O)(=O)OC(C)C(C)(C)C(=O)OCC (stereo not shown) : Negative
CCOC(=O)C(C)(N)COS(=O)(=O)CCCS(=O)(=O)O (stereo not shown) : Positive
CC(C)(CNC(=O)[C@@H](N)Cc1ccccc1)COS(=O)(=O)CCCS(=O)(=O)O : Negative
CC1(COS(=O)(=O)CCCS(=O)(=O)OCC2(C)CCC(=O)O2)CCC(=O)O1 (stereo not shown) : Negative
CC1(COS(=O)(=O)CCCS(=O)(=O)OCC2(C)CCOC2=O)CCOC1=O (stereo not shown) : Negative
CC1(C)COC(=O)C1OS(=O)(=O)CCCS(=O)(=O)OC1C(=O)OCC1(C)C (stereo not shown) : Negative
CC(C)(COS(=O)(=O)CCCS(=O)(=O)OCC(C)(C)C(=O)O)C(=O)O : Positive

----------
Assay: In vivo study in ferrets (clinical signs after oral gavage)
Settings: male ferrets, oral administration, standard dose as printed
measured_endpoint: Clinical signs / side effects in ferrets

CC1(C)COC(=O)C1OS(=O)(=O)CCCS(=O)(=O)OC1C(=O)OCC1(C)C (centres unmarked) [Compound B77] : no clinical signs
CCOC(=O)C(C)(C)COS(=O)(=O)CCCS(=O)(=O)OCC(C)(C)C(=O)OCC [Compound B29] : no clinical signs
CCOC(=O)C(OS(=O)(=O)CCCS(=O)(=O)OC(C(=O)OCC)C(C)C)C(C)C (centres unmarked) [Compound B83] : no clinical signs

----------
# Conversion to 1,3PDS (%) 0 h annotations
Experiment: Water stability (conversion of prodrug to 1,3PDS)
Format: physicochemical
Details: deionized water, room temperature, 0 h, 200 μg/mL
measured_endpoint: Conversion to 1,3PDS (%) 0 h

O=S1(=O)CCCS(=O)(=O)O1 : 50.3
CC(C)(C)COS(=O)(=O)CCCS(=O)(=O)[O-].[Na+] : 0.4
CC(C)(CCOC(=O)c1ccccc1)COS(=O)(=O)CCCS(=O)(=O)OCC(C)(C)CCOC(=O)c1ccccc1 : 0.0
CC(OC(=O)NCCC(C)(C)COS(=O)(=O)CCCS(=O)(=O)O)OC(=O)C(C)C (centres unmarked) : 0.0
CC(C)(CNC(=O)[C@H](Cc1ccccc1)NC(=O)OC(C)(C)C)COS(=O)(=O)CCCS(=O)(=O)[O-].[Na+] : 7.0
CC(C)(CNC(=O)[C@@H](N)Cc1ccccc1)COS(=O)(=O)CCCS(=O)(=O)O : 13
CC(C)[C@H](N)C(=O)NCCC(C)(C)COS(=O)(=O)CCCS(=O)(=O)O : 0.2
CC(C)(COS(=O)(=O)CCCS(=O)(=O)OCC(C)(C)C(=O)OCc1ccccc1)C(=O)OCc1ccccc1 : 0.0

----------
Tested on: Salmonella typhimurium strains (TA1535, TA1537, TA98, TA100) and Escherichia coli strain WP2 uvrA
Experiment: Bacterial mutation tests (Ames test)
Type: cell-based
Details: 1.58 to 5000 μg/plate, pre-incubation version, with S9 mix
measured_endpoint: Bacterial mutation test result in presence of S9

CCOC(=O)C(OS(=O)(=O)CCCS(=O)(=O)OC(C(=O)OCC)C(C)C)C(C)C (stereo not shown) : Negative
CC1(COS(=O)(=O)CCCS(=O)(=O)OCC2(C)CCC(=O)O2)CCC(=O)O1 (stereo not shown) : Negative
CC(C)(COS(=O)(=O)CCCS(=O)(=O)OCC(C)(C)C(=O)O)C(=O)O : Positive
CCOC(=O)C(C)(C)COS(=O)(=O)CCCS(=O)(=O)OCC(C)(C)C(=O)OCC : Positive
CCOC(=O)C(C)(N)COS(=O)(=O)CCCS(=O)(=O)O (stereo not shown) : Positive
CCOC(=O)CCC(C)(C)COS(=O)(=O)CCCS(=O)(=O)OCC(C)(C)CCC(=O)OCC : Negative
CC1(C)COC(=O)C1OS(=O)(=O)CCCS(=O)(=O)OC1C(=O)OCC1(C)C (stereo not shown) : Negative
CC1(COS(=O)(=O)CCCS(=O)(=O)OCC2(C)CCOC2=O)CCOC1=O (stereo not shown) : Negative
CC(C)(CNC(=O)[C@@H](N)Cc1ccccc1)COS(=O)(=O)CCCS(=O)(=O)O : Negative
CCOC(=O)C(C)(C)C(C)OS(=O)(=O)CCCS(=O)(=O)OC(C)C(C)(C)C(=O)OCC (stereo not shown) : Negative

----------
Experiment: Water stability (conversion of prodrug to 1,3PDS)
Format: physicochemical
Conditions: deionized water, 37° C., 1 h
measured_endpoint: Conversion to 1,3PDS (%) 1 h

CC(C)(CNC(=O)[C@H](Cc1ccccc1)NC(=O)OC(C)(C)C)COS(=O)(=O)CCCS(=O)(=O)[O-].[Na+] : 14.6
CC(C)(CCOC(=O)c1ccccc1)COS(=O)(=O)CCCS(=O)(=O)OCC(C)(C)CCOC(=O)c1ccccc1 : 0.0
O=S1(=O)CCCS(=O)(=O)O1 : 57.3
CC(C)(CNC(=O)[C@@H](N)Cc1ccccc1)COS(=O)(=O)CCCS(=O)(=O)O : 14
CC(C)[C@H](N)C(=O)NCCC(C)(C)COS(=O)(=O)CCCS(=O)(=O)O : 0.4
CC(C)(C)COS(=O)(=O)CCCS(=O)(=O)[O-].[Na+] : 1.0
COC(=O)c1ccccc1OS(=O)(=O)CCCS(=O)(=O)O : 0.1
CC(C)(COS(=O)(=O)CCCS(=O)(=O)OCC(C)(C)C(=O)OCc1ccccc1)C(=O)OCc1ccccc1 : 0.0
CC(OC(=O)NCCC(C)(C)COS(=O)(=O)CCCS(=O)(=O)O)OC(=O)C(C)C (centres unmarked) : 0.0
CC(C)[C@H](N)C(=O)NCCC(C)(C)COS(=O)(=O)CCCS(=O)(=O)OCC(C)(C)CCNC(=O)[C@@H](N)C(C)C : 0.0
CC(OC(=O)NCCC(C)(C)COS(=O)(=O)CCCS(=O)(=O)OCC(C)(C)CCNC(=O)OC(C)OC(=O)C(C)C)OC(=O)C(C)C (centres unmarked) : 0.4
